test: Solubility of solid organic sunscreens in solubilizers (25° C.); assay type: physicochemical; settings: solute 4-Methylbenzylidene camphor (MBC)
Is Solubility of MBC in the solvent at least 40 wt. %? Then Condition met. If not, Condition not met.

Exercise: Item CCCCCCCC(=O)OCCc1ccccc1 [2-phenylethyl octanoate] with Solubility of MBC in the solvent of 40 wt. % or above?
Key: Condition not met

Exercise: Item CCCCCCCCOC(=O)OCc1ccccc1 [benzyl octyl carbonate] with Solubility of MBC in the solvent of 40 wt. % or above?
Key: Condition not met

Exercise: Item CCC(=O)OC(C)c1ccccc1 (stereo not drawn) [1-phenylethyl propionate] with Solubility of MBC in the solvent of 40 wt. % or above?
Key: Condition met

Exercise: Item CC(C)CCCCCCCOC(=O)C(C)(C)C [isodecyl neopentanoate, reference compound] with Solubility of MBC in the solvent of 40 wt. % or above?
Key: Condition not met

Exercise: Item CCC(=O)OCCc1ccccc1 [2-phenylethyl propionate] with Solubility of MBC in the solvent of 40 wt. % or above?
Key: Condition met

Exercise: Item CC(O)C(=O)OCc1ccccc1 (stereo not drawn) [benzyl lactate] with Solubility of MBC in the solvent of 40 wt. % or above?
Key: Condition not met

Exercise: Item O=C(OCCc1ccccc1)C1CCCCC1 [2-phenylethyl cyclohexanoate, 2-Phenylethyl Cyclohexanecarboxylate] with Solubility of MBC in the solvent of 40 wt. % or above?
Key: Condition not met
